- Target or test system: GST-Nv-NF-kB (Cys allele) (Nematostella vectensis, UniProt E5G601 2-411)
- Sequence: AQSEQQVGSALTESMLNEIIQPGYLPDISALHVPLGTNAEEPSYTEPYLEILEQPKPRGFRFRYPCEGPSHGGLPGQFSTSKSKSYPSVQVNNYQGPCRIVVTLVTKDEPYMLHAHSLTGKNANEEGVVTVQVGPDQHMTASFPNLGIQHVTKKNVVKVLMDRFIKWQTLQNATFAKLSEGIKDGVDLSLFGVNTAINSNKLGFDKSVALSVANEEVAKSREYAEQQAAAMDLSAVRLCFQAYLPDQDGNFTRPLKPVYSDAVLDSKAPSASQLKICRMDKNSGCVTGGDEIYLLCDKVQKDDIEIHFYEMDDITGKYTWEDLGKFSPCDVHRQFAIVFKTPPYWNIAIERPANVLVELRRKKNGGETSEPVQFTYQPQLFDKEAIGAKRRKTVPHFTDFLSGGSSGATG
- Experiment summary: protein-binding microarray (PBM); PBM: ~300 nM protein, 6 mM HEPES pH 7.8, 80 mM KCl, 0.5 mM EDTA, 0.5 mM EGTA, 6% glycerol, 35 ng/ul poly-dIdC, 1% milk, 1 h, room temperature; Ap Aiptasia and Nv Nematostella (sea anemones) / Co Capsaspora / Aq Amphimedon (sponge) / Dm Drosophila / Hu human; RHD is the Rel homology domain; high values mean tight binding
- Condition: dsDNA, one strand shown

[
  {
    "Residue codes": "CCGATTAACATCAGGGAAAGACCTGATGTTAATCGGGTCTTGATTCGCTTGACGCTGCTG",
    "Target or test system": "GST-Nv-NF-kB (Cys allele) (Nematostella vectensis, UniProt E5G601 2-411)",
    "binding signal": "5.27 z-score"
  },
  {
    "Residue codes": "CCGATTAACATCAGGGGATATACTGATGTTAATCGGGTCTTGATTCGCTTGACGCTGCTG",
    "Target or test system": "GST-Nv-NF-kB (Cys allele) (Nematostella vectensis, UniProt E5G601 2-411)",
    "binding signal": "4.91 z-score"
  },
  {
    "Residue codes": "CCGATTAACATCAAGCAATCCCCTGATGTTAATCGGGTCTTGATTCGCTTGACGCTGCTG",
    "Target or test system": "GST-Nv-NF-kB (Cys allele) (Nematostella vectensis, UniProt E5G601 2-411)",
    "binding signal": "6.39 z-score"
  },
  {
    "Residue codes": "CCGATTAACATCAGGAAATGCCCTGATGTTAATCGGGTCTTGATTCGCTTGACGCTGCTG",
    "Target or test system": "GST-Nv-NF-kB (Cys allele) (Nematostella vectensis, UniProt E5G601 2-411)",
    "binding signal": "3.05 z-score"
  },
  {
    "Residue codes": "CCGATTAACATCACGTTATTCCCTGATGTTAATCGGGTCTTGATTCGCTTGACGCTGCTG",
    "Target or test system": "GST-Nv-NF-kB (Cys allele) (Nematostella vectensis, UniProt E5G601 2-411)",
    "binding signal": "2.96 z-score"
  },
  {
    "Residue codes": "CCGATTAACATCAGGGAATGCCATGATGTTAATCGGGTCTTGATTCGCTTGACGCTGCTG",
    "Target or test system": "GST-Nv-NF-kB (Cys allele) (Nematostella vectensis, UniProt E5G601 2-411)",
    "binding signal": "2.76 z-score"
  },
  {
    "Residue codes": "CCGATTAACATCACGGAATTACCTGATGTTAATCGGGTCTTGATTCGCTTGACGCTGCTG",
    "Target or test system": "GST-Nv-NF-kB (Cys allele) (Nematostella vectensis, UniProt E5G601 2-411)",
    "binding signal": "1.63 z-score"
  },
  {
    "Residue codes": "CCGATTAACATCAGTCCCACAGATGATGTTAATCGGGTCTTGATTCGCTTGACGCTGCTG",
    "Target or test system": "GST-Nv-NF-kB (Cys allele) (Nematostella vectensis, UniProt E5G601 2-411)",
    "binding signal": "1.55 z-score"
  },
  {
    "Residue codes": "CCGATTAACATCAGAACATTCCCTGATGTTAATCGGGTCTTGATTCGCTTGACGCTGCTG",
    "Target or test system": "GST-Nv-NF-kB (Cys allele) (Nematostella vectensis, UniProt E5G601 2-411)",
    "binding signal": "4.14 z-score"
  }
]

All figures here come from paper PMC5700166.
